These entries and their values trace back to patent US20210403593A1.

Biological target: T1, human CD39 (cellular) (human, UniProt P49961 1-510)
T1 construct: Same protein on engineered CHO cells and on cells that express it endogenously; also called hCD39; cellular CD39
T1 sequence: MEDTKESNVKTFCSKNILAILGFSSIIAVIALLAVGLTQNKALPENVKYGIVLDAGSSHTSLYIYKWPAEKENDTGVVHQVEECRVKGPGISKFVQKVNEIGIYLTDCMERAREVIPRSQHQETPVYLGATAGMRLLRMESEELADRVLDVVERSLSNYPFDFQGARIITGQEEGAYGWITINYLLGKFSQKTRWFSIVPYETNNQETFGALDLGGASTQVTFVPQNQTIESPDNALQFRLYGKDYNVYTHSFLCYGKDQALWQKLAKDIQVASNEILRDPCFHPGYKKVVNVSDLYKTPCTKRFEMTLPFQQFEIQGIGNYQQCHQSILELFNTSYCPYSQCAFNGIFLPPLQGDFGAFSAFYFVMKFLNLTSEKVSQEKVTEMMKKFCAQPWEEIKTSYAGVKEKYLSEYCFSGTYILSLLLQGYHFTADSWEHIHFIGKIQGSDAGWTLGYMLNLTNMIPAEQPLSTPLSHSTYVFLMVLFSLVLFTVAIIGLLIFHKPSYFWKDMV
Test: flow cytometry, 100 nM IgG, MFI on CHO-hCD39 / MFI on parental CHO;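 also: cells exposed to IgG for 30 min on ice in PBS, bound antibody then revealed with a fluorescent goat anti-human IgG secondary (20 min, on ice)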
readout-type: Cell Binding (FOB) (fold over background)
Give bare numbers, in fold over background.

Could you report Cell Binding (FOB) for every entry in the following list?
1. 27577 (antibody, human IgG4 S228P, kappa, V domains shown) VH: QVQLVQSGAEVKKPGSSVKVSCKASGGAFSSYAIGWVRQAPGQGLEWMGGIIPTFGTANYAQKFQGRVTITADESTSTAYMELSSLRSEDTAVYYCARDGGGYQHHYFDLWGRGTLVTVSS VL: EIVMTQSPATLSVSPGERATLSCRASQSVGSNLAWYQQKPGQAPRLLIYGASTRATGIPARFSGSGSGTEFTLTISSLQSEDFAVYYCQQLTKWPLTFGGGTKVEIKR
2. 27579 (antibody, V domains shown) VH: QVQLVQSGAEVKEPGASVKVSCKAPGYTFTSYYMHWVRQAPGQGLEWMGVINPSGGSTSYAQKFQGRVTMTRDTSTSTVYMELSSLRSEDTAVYYCARGKREGGTEYLRHWGQGTLVTVSS VL: EIVLTQSPGTLSLSPGERATLSCRASQSVSSSYLAWYQQKPGQAPRLLIYGASSRATGIPDRFSGSGSGTDFTLTISRLEPEDFAVYYCQQYHSYITFGGGTKVEIK
3. 31891 (antibody, human IgG4 S228P, kappa, V domains shown) VH: QVQLVQSGAEVKKPGASVKVSCKASGYIFKSYEMHWVRQAPGQGLEWMGRINPSVGSTWYAQKFQGRVTMTRDTSTSTVYMELSSLRSEDTAVYYCARGKREGGTEYLRVWGQGTLVTVSS VL: EIVLTQSPGTLSLSPGERATLSCRASQSVSSSYLAWYQQKPGQAPRLLIYYASSRAYGIPDRFSGSGSGTDFTLTISRLEPEDFAVYYCQQYHNAITFGGGTKVEIKR

RESULT:
390
1950
1030
